target-desc: T1, UT receptor present in rat aortic ring (rat, UniProt P49684 1-386)
T1 sequence (looked up): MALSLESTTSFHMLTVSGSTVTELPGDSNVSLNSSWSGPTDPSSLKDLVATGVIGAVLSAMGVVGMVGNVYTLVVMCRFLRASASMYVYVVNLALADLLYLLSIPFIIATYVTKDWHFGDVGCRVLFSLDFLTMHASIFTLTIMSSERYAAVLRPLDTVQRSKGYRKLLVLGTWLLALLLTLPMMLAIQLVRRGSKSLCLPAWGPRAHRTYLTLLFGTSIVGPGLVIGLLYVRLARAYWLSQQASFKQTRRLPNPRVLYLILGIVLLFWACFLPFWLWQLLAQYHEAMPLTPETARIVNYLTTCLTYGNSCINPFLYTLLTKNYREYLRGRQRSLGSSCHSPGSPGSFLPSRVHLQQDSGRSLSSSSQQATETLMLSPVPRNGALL
test-protocol: cell-based or functional assay
Bridge positions count the residues as written; N and C are the ends. Square brackets hold non-standard residues; d marks the D form. Ends that are not written are not given here. 1Nal = N[C@@H](Cc1cccc2ccccc12)C(=O)O; Tiq1c(1S) = O=C(O)[C@H]1NCCc2ccccc21; dTle = CC(C)(C)[C@@H](N)C(=O)O; dAia = not defined here
Property: Aortic Ring contraction Emax (%); scope: individual binders

| binder | Aortic Ring contraction Emax (%) |
| --- | --- |
| H-ACF[Tiq1c(1S)]KYCV-OH (disulfide 2-7, H-Ala-Cys-Phe-Tiq-Lys-Tyr-Cys-Val-OH; also called compound 16) [[Tiq^4]URP] | 126 % of KCl (40 mM) contraction |
| H-ACF[1Nal]KYCV-OH (disulfide 2-7, H-Ala-Cys-Phe-Nal-Lys-Tyr-Cys-Val-OH; also called compound 3) [[1-Nal^4]URP] | 86 % of KCl (40 mM) contraction |
| ACF[dTle]KYCV-OH (disulfide 2-7, also called compound 8) [[D-Tbg^4]URP] | 99 % of KCl (40 mM) contraction |

// below: Aortic Ring contraction Emax (%) requested for another binder
**Query** Request the reported Aortic Ring contraction Emax (%) associated with ACF[dAia]KYCV (disulfide 2-7; not fully specified (bridges); reading uncertain; also: D-Aia indole ring bonded to Lys5 backbone N, also called compound 13) [[D-Aia^4]URP]
**Result** 148 % of KCl (40 mM) contraction

Entry source: patent US20140113872A1
